STUDY_SYSTEM: T1, human SIRPβ1 extracellular domain + His-tag (NP_006056.2) (human, UniProt O00241 30-371)
T1 construct: also called hSIRPβ1; HuSIRPβ1
T1 sequence (O00241 other isoform, or with tags, fused parts or gaps): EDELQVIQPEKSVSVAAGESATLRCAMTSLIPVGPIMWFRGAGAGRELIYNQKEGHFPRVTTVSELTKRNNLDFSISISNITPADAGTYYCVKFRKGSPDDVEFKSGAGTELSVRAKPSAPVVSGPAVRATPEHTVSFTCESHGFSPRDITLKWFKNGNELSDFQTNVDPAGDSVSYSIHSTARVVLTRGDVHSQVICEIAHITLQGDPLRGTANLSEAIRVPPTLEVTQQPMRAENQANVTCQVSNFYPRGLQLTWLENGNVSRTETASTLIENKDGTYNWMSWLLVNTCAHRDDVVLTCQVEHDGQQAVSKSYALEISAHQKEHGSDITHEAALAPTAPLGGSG
ASSAY_DETAILS: SPR, Ab captured, ECD-His analyte
READOUT_LABEL: pKd
# pKd is unitless: minus log10 of the molar concentration; print number only

Incoming: # get_value(readout='pKd', item= Antibody A14 (antibody, human IgG1, kappa, L234A L235A, V domains shown) VH: EVQLVESGGGLVQPGGSLRLSCAASGFTLSSYDMHWVRQAPGKGLEWVSAIGTAGDTYYTGSVKGRFTISRENAKNSLYLQMNSLRASDTAVYYCVRGGVWDDAFDIWGQGTMVTVSS VL: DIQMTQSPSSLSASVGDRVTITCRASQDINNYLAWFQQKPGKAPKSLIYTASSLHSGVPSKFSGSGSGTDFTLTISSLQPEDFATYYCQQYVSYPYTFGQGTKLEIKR )
Outgoing: 7.23

Incoming: // query: Antibody A16 (antibody, human IgG1, kappa, L234A L235A, V domains shown) VH: EVQLVESGGGLVQPGGSLRLSCAASGFTLSSYDMHWVRQAPGKGLEWVSAIGTAGDTYYTGSVKGRFTISRENAKNSLYLQMNSLRAGDTAVYYCVRGGVWDDAFDIWGQGTMVTVSS VL: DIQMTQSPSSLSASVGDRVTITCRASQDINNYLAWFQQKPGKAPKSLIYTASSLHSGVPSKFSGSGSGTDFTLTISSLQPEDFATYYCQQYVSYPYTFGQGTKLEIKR
Outgoing: 7.20

Incoming: // query: Antibody A4 (antibody, human IgG1, kappa, L234A L235A, V domains shown) VH: EVQLVESGGGLVQPGGSLRLSCAASGFTLSSYDMHWVRQAPGKGLEWVSAIGTAGDTYYTGSVKGRFTISRENAKNSLYLQMNSLRAADTAVYYCVRGGVWDDAFDIWGQGTMVTVSS VL: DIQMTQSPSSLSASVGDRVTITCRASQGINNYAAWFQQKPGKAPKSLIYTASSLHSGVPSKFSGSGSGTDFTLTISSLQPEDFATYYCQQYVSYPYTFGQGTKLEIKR
Outgoing: 7.17

Just for reference, patent US20230012273A1 is where these values come from.
